Experiment: LogP (hydrophilicity)
Type: physicochemical
reported.property: logP
Just the number, please, no unit after it.

Problem: Please give the documented logP of [11CH3]SC[C@H](NC(=O)N[C@@H](CCC(=O)O)C(=O)O)C(=O)O [^11C-MCG]
Result: -0.235

// provenance: patent US7408079B2
